Just for reference, patent EP4817631A2 is where these values come from.

Biological target: T1, hRGMa-His (human, UniProt Q96B86 48-422, limits assumed)
T1 construct: not shown: His tag
T1 sequence: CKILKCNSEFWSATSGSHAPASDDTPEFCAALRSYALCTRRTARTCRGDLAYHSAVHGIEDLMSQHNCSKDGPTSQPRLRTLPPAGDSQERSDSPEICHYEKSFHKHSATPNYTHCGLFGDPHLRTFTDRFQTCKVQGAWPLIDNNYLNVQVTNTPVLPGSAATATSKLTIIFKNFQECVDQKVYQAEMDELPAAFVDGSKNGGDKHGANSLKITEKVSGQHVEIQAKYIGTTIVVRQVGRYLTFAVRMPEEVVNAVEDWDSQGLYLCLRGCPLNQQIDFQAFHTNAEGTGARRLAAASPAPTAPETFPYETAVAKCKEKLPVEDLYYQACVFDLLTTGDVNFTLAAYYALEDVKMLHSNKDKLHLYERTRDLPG
Test: BIAcore; Ab captured on CM5 chip via anti-hIgG Fc Ab, antigen injected; 1:1 Langmuir fit
measurement_name: koff (s⁻¹)
The figure you give is taken to be in s⁻¹; do not add the unit.

Consider the reported koff for these binders:
| binder | koff [s⁻¹] |
| --- | --- |
| h5F9.AM4 (antibody, V domains shown, also called RGMA-h5F9AM.4; RGMA-h5F9Vh7a/pJP29 1 hIgG1/K mut) VH: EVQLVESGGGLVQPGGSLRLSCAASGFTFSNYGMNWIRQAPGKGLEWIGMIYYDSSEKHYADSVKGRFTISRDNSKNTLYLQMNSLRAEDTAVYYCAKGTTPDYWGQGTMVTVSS VL: DVVLTQSPLSLPVTLGQPASISCRSSQSLESSDGDTFLEWFQQRPGQSPRLLIYDVSTRFSGVPDRFSGSGSGTDFTLKISRVEAEDVGVYYCFQVTHDPVTFGQGTKLEIK | 2.2e-05 |
| h5F9.AM8 (antibody, V domains shown, also called RGMA-h5F9AM.8; RGMA-h5F9pJP297/pJP 298 hIgG1/K mut) VH: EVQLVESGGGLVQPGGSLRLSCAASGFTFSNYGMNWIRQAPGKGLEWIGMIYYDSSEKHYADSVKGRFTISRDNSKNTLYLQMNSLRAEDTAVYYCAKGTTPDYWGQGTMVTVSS VL: DVVLTQSPLSLPVTLGQPASISCRSSQSLEESDGYTFLHWFQQRPGQSPRLLIYEVSTRFSGVPDRFSGSGSGTDFTLKISRVEAEDVGVYYCFQATHDPLTFGQGTKLEIK | 2.7e-05 |
| h5F9.AM11 (antibody, V domains shown, also called RGMA-h5F9AM; 11; RGMA-h5F9pJP302/pJP 303 hIgG1/K mut) VH: EVQLVESGGGLVQPGGSLRLSCAASGFTFSNYGMNWVRQAPGKGLEWVSMIYYDSSEKHYADSVKGRFTISRDNSKNTLYLQMNSLRAEDTAVYYCAKGTTPDYWGQGTMVTVSS VL: DVVLTQSPLSLPVTLGQPASISCRSSQSLEDSDGGTFLEWFQQRPGQSPRLLIYDVSSRFSGVPDRFSGSGSGTDFTLKISRVEAEDVGVYYCFQATHDPLSFGQGTKLEIK | 9.9e-05 |

Q: Give recorded koff. h5F9.AM9 (antibody, V domains shown, also called RGMA-h5F9AM.9; RGMA-h5F9pJP297/pJP 299 hIgG1/K mut) VH: EVQLVESGGGVVQPGRSLRLSCAASGFTFSNYGMNWVRQAPGKGLEWVAMIYYDSSEKHYADSVKGRFTISRDNSKNTLYLQMNSLRAEDTAVYYCARGTTPDYWGQGTMVTVSS VL: DVVLTQSPLSLPVTLGQPASISCRSSQSLADSDGDTFLHWFQQRPGQSPRLLIYAVSHRFSGVPDRFSGSGSGTDFTLKISRVEAEDVGVYYCFQATHDPVTFGQGTKLEIK
Result: 0.0004
